Biological target: T1, full-length human Nectin-4 on cells (human, UniProt Q96NY8 32-510)
T1 sequence: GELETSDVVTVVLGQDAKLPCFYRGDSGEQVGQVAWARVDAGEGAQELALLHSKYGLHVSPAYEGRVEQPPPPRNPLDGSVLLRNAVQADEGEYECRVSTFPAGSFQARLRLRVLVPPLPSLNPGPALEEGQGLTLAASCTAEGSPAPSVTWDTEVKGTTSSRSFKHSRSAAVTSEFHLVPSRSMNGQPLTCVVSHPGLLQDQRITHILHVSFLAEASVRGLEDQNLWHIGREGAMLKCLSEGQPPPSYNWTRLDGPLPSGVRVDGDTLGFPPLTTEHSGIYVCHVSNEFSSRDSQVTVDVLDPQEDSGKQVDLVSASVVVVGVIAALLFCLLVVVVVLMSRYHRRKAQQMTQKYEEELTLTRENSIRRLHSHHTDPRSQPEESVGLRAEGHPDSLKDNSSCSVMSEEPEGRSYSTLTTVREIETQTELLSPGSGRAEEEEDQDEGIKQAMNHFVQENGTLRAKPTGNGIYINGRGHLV
Assay: cell-based or functional assay
Overview of recorded Endocytosis EC50 (cell killing with MMAF-conjugated Fab anti-hFc), Nectin-4-CHO cells for various binders
The answer consists of two parts: a number and, after it, its unit.

What measured Endocytosis EC50 (cell killing with MMAF-conjugated Fab anti-hFc), Nectin-4-CHO cells goes with N4_mAb 8 (antibody, human IgG1, V domains shown, Tested as chimera (murine variable regions, human IgG1/kappa constants); not shown: human IgG1 constant region (Uniprot P01857); human Kappa light chain constant region (UniProt P01834)) VH: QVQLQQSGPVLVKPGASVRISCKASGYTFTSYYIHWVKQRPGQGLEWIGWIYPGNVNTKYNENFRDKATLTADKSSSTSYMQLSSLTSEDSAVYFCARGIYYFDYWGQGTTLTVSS VL: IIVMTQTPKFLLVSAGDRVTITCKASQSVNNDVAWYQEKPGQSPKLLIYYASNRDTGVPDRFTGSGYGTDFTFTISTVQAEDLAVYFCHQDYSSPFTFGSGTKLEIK ?
0.43 nM

Again, but for N4_mAb 2 (antibody, human IgG1, V domains shown, Tested as chimera (human IgG1/kappa constants); not shown: human IgG1 constant region (Uniprot P01857); human Kappa light chain constant region (UniProt P01834)) VH: QVQLKQSGPNLVQPSQSLSITCTVSGFSLTTYGAHWVRQSPGKGLEWLGVIWRGGSTDYNAAFMSRLSITKDNSKSQVFFKMNSLQADDTAIYYCAKIGYDGYAMDNWGQGTSVTVSS VL: DFQVTQSPASLSASVGETVTITCRTSENIHNYLAWYQQKQGKSPQLLVYNAKTLADGVPSRFSGSGSGTQYSLKINSLQPEDFGTYYCQHFWSSPWTFGGGTKLEIK
0.56 nM

Also N4_mAb 6 (antibody, human IgG1, V domains shown, Tested as chimera (murine variable regions, human IgG1/kappa constants); not shown: human IgG1 constant region (Uniprot P01857); human Kappa light chain constant region (UniProt P01834)) VH: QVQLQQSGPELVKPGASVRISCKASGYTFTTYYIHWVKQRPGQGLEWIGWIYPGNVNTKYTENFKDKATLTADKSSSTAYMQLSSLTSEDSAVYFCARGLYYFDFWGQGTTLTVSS VL: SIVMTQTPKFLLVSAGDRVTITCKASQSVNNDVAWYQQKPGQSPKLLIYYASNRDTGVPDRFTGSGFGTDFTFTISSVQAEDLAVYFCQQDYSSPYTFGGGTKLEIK ?
0.44 nM
